Test: Cytotoxicity against HEK293T cells assessed as inhibition of cell viability at 25 uM after 48 hrs by MTT assay relative to control
Assay type: cell-based, HEK-293T
Conditions: human, read-out: INH
Field 'label' (enum: label 1 / label 0). Set to label 1 when cytotoxicity at 48 h, 25 µM is strictly under 40%; else label 0.

>>> class_name("CC1=NN(c2ccccc2)C(=O)C1 [EDARAVONE]")
"label 1"
>>> class_name("COc1c(-c2ccc3ccccc3c2)c(C)nn1-c1ccccc1")
"label 0"
>>> class_name("COc1c(C(=O)O)c(C)nn1-c1ccccc1")
"label 1"
>>> class_name("COc1ccc(-c2c(C)nn(-c3ccccc3)c2OC)cc1")
"label 0"
>>> class_name("COc1c(-c2ccsc2)c(C)nn1-c1ccccc1")
"label 1"

----------
Tested on: A549
Test: Cytotoxicity against human A549 cells assessed as inhibition of cell viability at 25 uM after 48 hrs by MTT assay relative to control
Format: functional
Settings: A549, 48 h
MEASURED_PARAMETER: inhibition at 25 µM (%)

>>> numeric_value("COc1c(C(=O)O)c(C)nn1-c1ccccc1")
22.1
>>> numeric_value("COc1c(-c2ccc(F)cc2)c(C)nn1-c1ccccc1")
63.9
>>> numeric_value("CC1=NN(c2ccccc2)C(=O)C1")
19.2
>>> numeric_value("COc1c(-c2csc3ccccc23)c(C)nn1-c1ccccc1")
73.5
>>> numeric_value("COc1c(-c2ccccc2)c(C)nn1-c1ccccc1")
65.7
>>> numeric_value("COc1ccc(-c2c(C)nn(-c3ccccc3)c2OC)c(OC)c1")
74.7
>>> numeric_value("COc1ccc(CNC(=O)c2c(C)nn(-c3ccccc3)c2OC)cc1")
60.9
>>> numeric_value("COc1c(C(=O)NCc2ccc(Cl)cc2)c(C)nn1-c1ccccc1")
87

----------
Experiment: Antioxidant activity assessed as DPPH free radical scavenging activity incubated for 30 mins in dark condition by spectrophotometric method
Format: physicochemical
Entries and their measured IC50 follow.
MEASURED_PARAMETER: IC50 (µg/mL)

>>> numeric_value("COc1c(-c2ccc(O)cc2)c(C)nn1-c1ccccc1")
37.03
>>> numeric_value("COc1cc(C)nn1-c1ccccc1")
49.18
>>> numeric_value("COc1c(Br)c(C)nn1-c1ccccc1")
36.96
>>> numeric_value("COc1c(C(=O)O)c(C)nn1-c1ccccc1")
16.27
>>> numeric_value("COc1c(-c2csc3ccccc23)c(C)nn1-c1ccccc1")
50.67
>>> numeric_value("COc1c(-c2ccccc2)c(C)nn1-c1ccccc1")
32.2
>>> numeric_value("COc1ccc(-c2c(C)nn(-c3ccccc3)c2OC)cc1")
24.98
>>> numeric_value("COc1c(-c2ccc(C#N)cc2)c(C)nn1-c1ccccc1")
41.98
>>> numeric_value("COc1c(-c2ccc(C)cc2)c(C)nn1-c1ccccc1")
18.6

----------
Test: Cytotoxicity against HEK293T cells assessed as inhibition of cell viability at 25 uM after 48 hrs by MTT assay relative to control
Assay type: cell-based, HEK-293T
Details: human, read-out: INH
The following molecules are listed with their measured cytotoxicity at 48 h, 25 µM values.
MEASURED_PARAMETER: cytotoxicity at 48 h, 25 µM (%)

>>> numeric_value("COc1c(Br)c(C)nn1-c1ccccc1")
5.96
>>> numeric_value("COc1ccc(-c2c(C)nn(-c3ccccc3)c2OC)c(OC)c1")
48.1
>>> numeric_value("COc1c(-c2ccccc2)c(C)nn1-c1ccccc1")
28.2
>>> numeric_value("COCc1ccccc1-c1c(C)nn(-c2ccccc2)c1OC")
56.5
>>> numeric_value("COc1c(-c2ccc(C)cc2)c(C)nn1-c1ccccc1")
19.7
>>> numeric_value("COc1c(-c2csc3ccccc23)c(C)nn1-c1ccccc1")
55
>>> numeric_value("COc1cc(C)nn1-c1ccccc1")
23
>>> numeric_value("COc1c(-c2ccc(O)cc2)c(C)nn1-c1ccccc1")
5.58
